- Tested on: ubiquinone-deficient enzyme preparation from beef heart mitochondria (succinate oxidase)
- assay.method.text: Electron transport activity (succinate oxidase activity of ubiquinone-deficient enzyme preparation)
- Assay type: biochemical
- measurement.parameters: level of addition 5 n mole; control 7.1 ± 2.8
# Lookup of reported Succinate oxidase activity [oxygen consumption] keyed by entry

What measured Succinate oxidase activity [oxygen consumption] goes with COC1=C(OC)C(=O)C(CC=C(C)CCCC(C)(C)O)=C(C)C1=O ? 21.4 (n atoms oxygen) min. per mg p

What measured Succinate oxidase activity [oxygen consumption] goes with COC1=C(OC)C(=O)C(CCC(C)CO)=C(C)C1=O (centres unmarked) [drawing 25] ? 12.5 (n atoms oxygen) min. per mg p

What measured Succinate oxidase activity [oxygen consumption] goes with COC1=C(OC)C(=O)C(C/C=C(\C)CCCO)=C(C)C1=O [drawing 24] ? 18.2 (n atoms oxygen) min. per mg p
